Each entry below carries its recorded self-cleavage.
B1: HDV Ribozyme (parent)
chain: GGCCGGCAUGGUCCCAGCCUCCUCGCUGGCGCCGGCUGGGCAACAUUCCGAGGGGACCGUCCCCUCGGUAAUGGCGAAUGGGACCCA

# Variants of: B1
# Measurement Notes: self-cleavage, relative activity (ratio to wild type); higher = more cleavage; co-transcriptional
Write the number on its own, no unit after it.

Here are 5 variants together with their reported answers.
Variant Notation | self-cleavage
G6U C85G | 0.297
C44A C61A | 0.618
C15G G81A | 0.297
G73U A77G | 0.306
C15U A42G | 0.246

For record C57U A78G the listed self-cleavage is 0.639

Reported self-cleavage ( C44U C86A ) = 0.716

The value of self-cleavage measured for the variant A42G C49U turned out to be 0.489

Field self-cleavage (entry G6C A77U ) reads 0.145

Notebook: C21A U37C , self-cleavage read as 0.196

self-cleavage reported for this variant G17U U60A : 0.494
